molecular target: CYP125A4 (Mycolicibacterium smegmatis, UniProt A0QY38)
Sequence (A0QY38 1-430): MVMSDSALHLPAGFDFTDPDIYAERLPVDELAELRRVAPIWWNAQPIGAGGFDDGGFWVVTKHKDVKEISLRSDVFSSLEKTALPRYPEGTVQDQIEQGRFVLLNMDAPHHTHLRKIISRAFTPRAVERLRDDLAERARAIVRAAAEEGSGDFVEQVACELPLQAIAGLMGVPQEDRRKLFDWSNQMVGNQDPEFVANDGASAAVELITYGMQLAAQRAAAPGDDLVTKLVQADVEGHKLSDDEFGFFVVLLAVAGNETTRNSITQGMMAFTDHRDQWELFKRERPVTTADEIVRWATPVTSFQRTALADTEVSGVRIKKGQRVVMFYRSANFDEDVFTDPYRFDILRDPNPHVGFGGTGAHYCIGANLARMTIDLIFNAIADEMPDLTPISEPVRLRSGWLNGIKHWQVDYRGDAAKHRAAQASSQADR
parameter: Kd (µM)
Answer in µM, number only, no unit symbol.

Identify the measured Kd of CC(C)CCC[C@@H](C)[C@H]1CC[C@H]2[C@@H]3[C@H](O)C=C4C[C@@H](O)CC[C@]4(C)[C@H]3CC[C@]12C [7α-hydroxycholesterol] for CYP125A4 (Mycolicibacterium smegmatis, UniProt A0QY38).
8.7

###

target: UniProt:A0R4Y3
Sequence (A0R4Y3 whole entry): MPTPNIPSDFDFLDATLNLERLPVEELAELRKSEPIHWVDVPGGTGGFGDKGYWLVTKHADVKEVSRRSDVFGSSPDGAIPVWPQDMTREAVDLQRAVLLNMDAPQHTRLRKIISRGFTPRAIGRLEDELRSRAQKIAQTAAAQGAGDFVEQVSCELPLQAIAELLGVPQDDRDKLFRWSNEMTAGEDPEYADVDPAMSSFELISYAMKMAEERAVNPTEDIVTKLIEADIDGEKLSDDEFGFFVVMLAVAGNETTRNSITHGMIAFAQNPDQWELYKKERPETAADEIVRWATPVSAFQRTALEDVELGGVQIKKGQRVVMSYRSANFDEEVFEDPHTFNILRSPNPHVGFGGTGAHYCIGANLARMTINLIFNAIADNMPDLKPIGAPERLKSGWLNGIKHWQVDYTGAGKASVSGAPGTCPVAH
parameter: Kd (µM)
Answer in µM, number only, no unit symbol.

Identify the measured Kd of CC(C)CCC[C@@H](C)[C@H]1CC[C@H]2[C@@H]3[C@H](O)C=C4C[C@@H](O)CC[C@]4(C)[C@H]3CC[C@]12C [7α-hydroxycholesterol] for UniProt:A0R4Y3.
32.9
